Reference for the values: patent US20260125446A1

- Measured On: T1, mouse serum albumin (mouse, UniProt P07724 25-608)
- T1 construct: Bought protein, immobilized on a CM5 chip by amine coupling; also called Mouse SA
- Test Name: SPR (Biacore 8K), albumin immobilized on CM5 chip, 25 C, 1:1 kinetic fit

{"Binder": "RLN Analog 12 (other, Single-chain fusion: VHH - (G4Q)5 L1 - RLN2 B chain (desB1) - L2 of thirteen residues - RLN2 A chain (desA1-4)) EVQLLESGGGLVQPGGSLRLSCAASGRYIDETAVAWFRQAPGKGREFVAGIGGGVDITYYADSVKGRFTISRDNSKNTLYLQMNSLRPEDTAVYYCAARPGRPLITSKVADLYPYWGQGTLVTVSSGGGGQGGGGQGGGGQGGGGQGGGGQSWMEEVIKLCGRELVRAQIAICGMSTWSGGGSGGSGGSGGGALANKCCHVGCTKRSLARFC", "kon, M⁻¹ s⁻¹": "1.8e+06"}
{"Binder": "RLN Analog 9 (other, Single-chain fusion: RLN2 B chain (desB1) - L2 - RLN2 A chain - (G4Q)5 L1 - VHH (C-terminal)) SWMEEVIKLCGRELVRAQIAICGMSTWSGGGSGGSGGGQLYSALANKCCHVGCTKRSLARFCGGGGQGGGGQGGGGQGGGGQGGGGQEVQLLESGGGLVQPGGSLRLSCAASGRYIDETAVAWFRQAPGKGREFVAGIGGGVDITYYADSVKGRFTISRDNSKNTLYLQMNSLRPEDTAVYYCAARPGRPLITSKVADLYPYWGQGTLVTVSSPP", "kon, M⁻¹ s⁻¹": "1.2e+06"}
{"Binder": "RLN Analog 13 (other, Single-chain fusion: VHH - (G4Q)5 L1 - RLN2 A chain (desA1-4) - L2 - RLN2 B chain (desB1)) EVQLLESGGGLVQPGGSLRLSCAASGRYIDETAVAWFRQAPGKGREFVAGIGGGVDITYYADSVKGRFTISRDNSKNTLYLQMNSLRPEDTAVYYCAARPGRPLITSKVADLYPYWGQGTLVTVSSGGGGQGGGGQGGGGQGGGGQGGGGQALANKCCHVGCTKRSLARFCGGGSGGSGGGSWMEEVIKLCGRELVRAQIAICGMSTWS", "kon, M⁻¹ s⁻¹": "1.8e+06"}
{"Binder": "RLN Analog 7 (other, Single-chain fusion: VHH - (G4Q)5 L1 - RLN2 B chain (desB1) - L2 - RLN2 A chain) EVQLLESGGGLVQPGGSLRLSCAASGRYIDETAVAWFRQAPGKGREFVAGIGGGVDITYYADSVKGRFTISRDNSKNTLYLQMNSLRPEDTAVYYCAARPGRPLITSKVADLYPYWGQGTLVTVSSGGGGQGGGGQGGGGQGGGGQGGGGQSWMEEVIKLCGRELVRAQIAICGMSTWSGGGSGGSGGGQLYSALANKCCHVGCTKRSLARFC", "kon, M⁻¹ s⁻¹": "2e+06"}
{"Binder": "RLN Analog 6 (other, Single-chain fusion: RLN2 B chain (desB1) - L2 - RLN2 A chain - PGPQ-repeat L1 - VHH (C-terminal)) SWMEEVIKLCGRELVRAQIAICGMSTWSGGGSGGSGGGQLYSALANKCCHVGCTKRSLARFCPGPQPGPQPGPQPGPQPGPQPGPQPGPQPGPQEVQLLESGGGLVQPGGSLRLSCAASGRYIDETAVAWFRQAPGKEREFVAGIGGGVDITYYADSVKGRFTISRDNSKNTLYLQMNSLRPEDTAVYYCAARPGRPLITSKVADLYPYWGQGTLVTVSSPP", "kon, M⁻¹ s⁻¹": 630000}
{"Binder": "RLN Analog 5 (other, Single-chain fusion: RLN2 B chain (desB1) - L2 - RLN2 A chain - (G4Q)5 L1 - VHH (C-terminal)) SWMEEVIKLCGRELVRAQIAICGMSTWSGGGSGGSGGGQLYSALANKCCHVGCTKRSLARFCGGGGQGGGGQGGGGQGGGGQGGGGQEVQLLESGGGLVQPGGSLRLSCAASGRYIDETAVAWFRQAPGKEREFVAGIGGGVDITYYADSVKGRFTISRDNSKNTLYLQMNSLRPEDTAVYYCAARPGRPLITSKVADLYPYWGQGTLVTVSSPP", "kon, M⁻¹ s⁻¹": 590000}
